# credit: PubChem BioAssay (NCI)

Test system: SNB-78 CNS
assay_overview: NCI tumour cell line growth inhibition, 48 h
TGI reference

CS(=O)(=O)c1ccc(-c2cc(-c3ccc(S(C)(=O)=O)cc3)[n+](-c3cc(-c4ccc(S(C)(=O)=O)cc4)c([O-])c(-c4ccc(S(C)(=O)=O)cc4)c3)c(-c3ccc(S(C)(=O)=O)cc3)c2)cc1: > 100 µM
CCCP1(=O)C=C(C)C(=C(Cl)Cl)C(C)=C1 (centres undefined): > 100 µM
N#C[C@H](OC1OC(COC2OC(CO)C(O)C(O)C2O)C(O)C(O)C1O)c1ccccc1 (some centres undefined): > 250 µM

Record request: TGI value, item Cc1ccc(C2OC(COCc3ccc(Cl)cc3)C(OCc3ccc(Cl)cc3)C2O)cc1 (centres undefined)
29.6 µM

* * *

Tested on: CCRF-CEM leukemia
assay_overview: NCI tumour cell line growth inhibition, 48 h
A collection of molecules and their measured GI50

// below: answered molecules
CN1CCN(C(=O)c2cc(-c3ccc4ncnc(N5CCc6cc(F)c(Cl)cc65)c4c3)cnc2N)CC1: 0.266 µM
O=C(/C=C/c1cc2ccccc2[nH]c1=O)/C=C/c1cc2ccccc2[nH]c1=O: 7.97 µM
CCOc1ccccc1C(=O)N1CCN(c2cc(Cl)cc(Cl)c2)CC1: 0.0357 µM

What measured GI50 goes with COc1cc(N2C(=O)[C@H](O)C2c2ccc(SC)cc2)cc(OC)c1OC (stereo partly specified) ?
< 0.01 µM

Please give the result for CCOC(=O)C1=C(C)N(c2ccc(Cl)cc2)[C@]2(C#N)C(O)=C(Cl)C(Cl)=C(O)[C@]12C#N too.
25.6 µM

Field entry: Cc1cc(S(=O)(=O)/N=C(/N)Nc2ccccc2O)c(SCc2ccccc2)cc1Cl
5.95 µM

Param item: COc1cc2nc(N3CCCC3)nc(NCCc3ccccc3)c2cc1OC
1.44 µM

Input CC(=O)OC12C=C(C)C(C(C)C1)C1C(=O)N(CCN3CCOCC3)C(=O)C12 (stereo unspecified)
> 100 µM

* * *

Tested on: HCT-116 colon
assay_overview: NCI tumour cell line growth inhibition, 48 h
Reported values of TGI for individual entries

Please review the following examples before continuing.
CC(=O)C(CN(CC(C)C)CC(C)C)C(c1ccccc1)c1c(O)c2ccccc2oc1=O (centres undefined): > 100 µM
CN[C@@H](C)C(=O)N[C@H](C(=O)N1CCC[C@H]1C(=O)Nc1sc(-c2ncco2)nc1-c1ccccc1)C1CCCCC1: > 85.4 µM
COc1cccc(OC(=O)c2ccc(C(F)(F)F)nc2Nc2cc(Cl)ccc2C)c1: 55.8 µM
CC(=O)Nc1ccc(SC#N)c2c(NC(C)=O)cccc12: > 100 µM
COc1cc(N2C(=O)[C@H](O)C2c2ccc(SC)cc2)cc(OC)c1OC (some centres undefined): > 100 µM

Provide the documented TGI with HCT-116 colon as the system for O=C(NC1=C(Cl)C(=O)c2ccccc2C1=O)c1ccc(F)cc1
10.6 µM

What would you report for O=C(OCc1ccc2ccccc2n1)c1cn(C2CC2)c2cc(N3CCN(Cc4ccc5ccccc5n4)CC3)c(F)cc2c1=O ?
> 95.3 µM

Ok, now O=C1OCC2=C1C(c1ccccc1)c1cc3c(cc1N2)OCO3 (centres undefined)
> 100 µM

Another compound to look at: Cc1cc(S(=O)(=O)Nc2nc3ccccc3nc2-c2cccc([N+](=O)[O-])c2)c(S)cc1Cl
35.2 µM

* * *

Tested on: ACHN renal
assay_overview: NCI tumour cell line growth inhibition, 48 h; in the data active = GI50 below about 0.43 µM; inactive = the rest
One label from this list, please: 1 (active), -1 (inactive)

Some solved cases for reference:
O=C1NC(=O)C(N2C(=O)c3ccccc3C2=O)CC1O (stereo not given): -1
CN(C)CCCn1c(=O)c2ccccc2c2ccccc21: -1
CC(=O)/C=C/c1cn(C(=O)OC(C)(C)C)c2ccc(Br)cc12: -1
CN=c1ccc2nc3ccc(N)cc3sc-2c1: -1
CO/N=C(\COc1ccc2c(c1)[nH]c1ccccc12)c1ccc(F)cc1: -1

Dear colleague, could you share the recorded outcome for O=C(Nc1ccc(OCc2nnc(-c3ccc(Cl)cc3)o2)c(F)c1)Nc1ccc(Cl)c(C(F)(F)F)c1 when you have a moment?
-1

Param item: COc1ccc(-c2[nH]c3ccccc3c2-c2ccc(OC)cc2)cc1
-1

Entry N#CC1(C(N)=O)C(c2ccc(Cl)cc2)CC(=O)CC1c1ccc(Cl)cc1 (stereo not given) please
-1

Another compound: CCOc1ccccc1C(=O)N1CCN(c2cc(Cl)cc(Cl)c2)CC1
1

For COc1ccc2cc1Oc1ccc(cc1)C[C@H]1c3c(cc4c(c3Oc3cc5c(cc3OC)CCN(C)[C@@H]5C2)OCO4)CCN1C then?
-1

* * *

System: XF 498 CNS
assay_overview: NCI tumour cell line growth inhibition, 48 h
experimental_endpoint: TGI

C/C=C1\CN2CCc3c([nH]c4ccccc34)C2CC1C(=O)OC (stereo not given): > 322 µM

In the following, a different compound is considered.
Entry Cc1cccc(C)c1NC(=O)/C(=N/NC(N)=S)C(C)C(=O)c1ccc(Cl)cc1 (stereo not given) : reported TGI = ?
> 100 µM

* * *

Tested on: UO-31 renal
assay_overview: NCI tumour cell line growth inhibition, 48 h
The entries below are paired with their reported TGI.
Expressed in µM, but write only the number.

Sample answers from the record:
CC1(/C=C/CCSc2ccccc2)CC(=O)C2CC1C2(C)C (stereo not drawn): 43.5
N#Cc1c(N2CCOCC2)nc(=S)[nH]c1-c1ccco1: 72.3
C1CCC([PH+](C2CCCCC2)C2CCCCC2[PH+](C2CCCCC2)C2CCCCC2)CC1.[Au].[CH-]1CCCCC1CC1CCCC[N-]1 (stereo not drawn): 2.61

Quick check: TGI of CCN(CC)c1ccc2cc(C(=O)Nc3ccc4[nH]c(C(=O)N5C[C@@H](CCl)c6c5cc(OC(=O)Nc5ccccc5)c5[nH]cc(C)c65)cc4c3)oc2c1 ?
982

* * *

Test system: SF-295 CNS
assay_overview: NCI tumour cell line growth inhibition, 48 h
experimental_endpoint: GI50

Please review the following examples before continuing.
CC(=O)/C=C/c1cn(C(=O)OC(C)(C)C)c2ccc(Br)cc12: 14.1 µM
CCOC(=O)C1=C(C)N(c2ccc(Cl)cc2)[C@]2(C#N)C(O)=C(Cl)C(Cl)=C(O)[C@]12C#N: > 100 µM
c1cnn2ncc(-c3ccnc(NCCCN4CCOCC4)n3)c2c1: 5.81 µM
Cc1ccc(/C=N\NC(=O)c2[nH]c3ccc(F)cc3c2-c2ccccc2)cc1: 0.0266 µM
O=S(=O)(c1ccc(Cl)cc1)C(Cl)(Cl)Cl: 5.3 µM

Query GI50 on SF-295 CNS for COc1ccc2c(c1)N(CCO)C1=C(C(=O)OC1)C2c1cccc(F)c1 (stereo not given)
0.196 µM

Next molecule up: Fc1ccc(/C=N/n2c(-c3ccc(F)c(Cl)c3)nn(CNc3ccccc3C(F)(F)F)c2=S)cc1
42.6 µM

Try this molecule too: COc1ccc(-c2nc(Nc3cc(C)[nH]n3)c3ccccc3n2)cc1
2.61 µM

# iterate: COc1cccc(OC(=O)c2ccc(C(F)(F)F)nc2Nc2cc(Cl)ccc2C)c1
23.9 µM

One more molecule: COc1ccc(-c2[nH]c3ccccc3c2-c2ccc(OC)cc2)cc1
3.33 µM

* * *

Tested on: P388 leukemia
assay_overview: NCI tumour cell line growth inhibition, 48 h
experimental_endpoint: TGI (µM)
Provide only the numeric value, understood in µM.

O=C(CCl)NNC1=Nc2ccc(Cl)cc2SC1: 1.07
NC(=O)c1csc(C2OC(CO)C(O)C2O)n1 (centres undefined): 159

Form entry - test system: P388 leukemia; read-out: TGI; compound: C=CC1(NC(=O)c2ccccc2)CCC(C(C)(C)C)CC1 (centres undefined)
38.4

* * *

System: HT29 colon
assay_overview: NCI tumour cell line growth inhibition, 48 h
experimental_endpoint: TGI (µM)
// note: answer is a bare numeric in µM

See these solved cases before continuing.
CCCCCCCOc1ccc(/C=C\c2cc[n+](CCCCCCCC[n+]3ccc(/C=C\c4ccc(OCCCCCCC)cc4)cc3)cc2)cc1: 28.7
O=C1C=CC2(C=C1)O[C@H](Cc1ccccc1)[C@@H](Cc1ccccc1)O2: 2.81
CN(C)CCCn1c(=O)c2ccccc2c2ccccc21: 33.4

Please find the next molecule below.
Field request: TGI | item: COc1ccc(C=O)c([N+](=O)[O-])c1
63.8

* * *

System: MOLT-4 leukemia
assay_overview: NCI tumour cell line growth inhibition, 48 h
TGI values by entry

Consider the reported TGI for these compounds:
Cc1cccc(C)c1NC(=O)/C(=N/NC(N)=S)C(C)C(=O)c1ccc(Cl)cc1 (stereo unspecified): > 100 µM
CCC1(c2ccccc2)C(=O)N=C(c2ccccc2)N1CCc1ccccc1 (stereo unspecified): > 100 µM

Short answer please: TGI, MOLT-4 leukemia, entry COc1ccc(CC2(O)C3CC4CCC2C4C3)cc1 (stereo unspecified)
> 100 µM

Request: CC(=O)NC(CCCNC(=O)N(CCCl)N=O)C(=O)NCc1ccccc1 (stereo unspecified)
> 100 µM

Another compound: OCc1ccc(N2CCCC2c2ccccc2)cc1Cl (stereo unspecified)
24.9 µM

Subsequent entry: CC#CCC1CCC(OCC)=CC1=O (stereo unspecified)
> 100 µM
